# System: mice
# Procedure Details: central nervous system toxicity observation in mice (ataxia, convulsions, loss of righting reflex, death)
# Assay type: in vivo, mouse (female Swiss albino, Ham/ICR)
# Conditions Used: 100 mg/kg s.c., 10 mice, 20 min observation
# Protocol: Ventricular fibrillation was produced in female Swiss albino mice (Ham/ICR weighing 18-25g.) essentially according to the method described by Lawson in J. Pharm, Exp. Therap. 160, 22 (1968). For initial evaluation of antiarrhythmic activity and toxicity of test compounds, a dose of 100 mg/kg (calculated for the base form, 1% solution in 0.9% saline, adjusted to pH 6-7) was administered subcutaneously to a group of 10 non-fasted, randomly selected mice. […]
Reported Endpoint: Toxicity: LRR (Loss of righting reflex) (number of mice)
Enter a number only.

# input Recorded Toxicity: LRR (Loss of righting reflex) (number of mice) for CCNCC(=O)Nc1cc(OC)c(OC)cc1Cc1nccc2cc(OC)c(OC)cc12 [Compound 2] , please?
# output 0

# input Recorded Toxicity: LRR (Loss of righting reflex) (number of mice) for CCN(CC)CC(=O)Nc1cc(OC)c(OC)cc1Cc1nccc2ccccc12 [Compound 6] , please?
# output 0

# input Recorded Toxicity: LRR (Loss of righting reflex) (number of mice) for CCN(CC)CC(=O)Nc1cc(OC)c(OC)cc1Cc1nccc2cc(OC)c(OC)cc12 [Compound 1] , please?
# output 0

# input Recorded Toxicity: LRR (Loss of righting reflex) (number of mice) for COc1ccc(Cc2nccc3ccccc23)c(NC(=O)C(C)N)c1OC (stereo not shown) [Compound 5] , please?
# output 0

# input Recorded Toxicity: LRR (Loss of righting reflex) (number of mice) for CCNCC(=O)Nc1c(Cc2nccc3ccccc23)ccc(OC)c1OC [Compound 4] , please?
# output 0

# input Recorded Toxicity: LRR (Loss of righting reflex) (number of mice) for COc1ccc(Cc2nccc3cc(OC)c(OC)cc23)cc1OC [Papaverine, reference compound] , please?
# output 0

# input Recorded Toxicity: LRR (Loss of righting reflex) (number of mice) for CCN(CC)CC(=O)Nc1c(Cc2nccc3ccccc23)ccc(OC)c1OC [Compound 3] , please?
# output 0

---

# Procedure Details: coronary ligated dogs, antiarrhythmic effect and toxicity, intravenous infusion (Harris procedure)
# Assay type: in vivo, dog
# Conditions Used: dog, in vivo, iv, Dose Producing Toxicity (convulsion)
Reported Endpoint: dose producing toxicity
Answers without a unit are incomplete; give the number and then its unit.

# input Recorded dose producing toxicity for `CCN(CC)CC(=O)Nc1c(Cc2nccc3ccccc23)ccc(OC)c1OC` , please?
# output 15.8 mg/kg

---

# Tested on: mice
# Procedure Details: central nervous system toxicity observation in mice (ataxia, convulsions, loss of righting reflex, death)
# Format: in vivo, mouse (female Swiss albino, Ham/ICR)
# Conditions Used: 100 mg/kg s.c., 10 mice
Task for the reader: assign each of the following compounds its reported Toxicity: Death (number of mice).
Enter a number only.

# input Recorded Toxicity: Death (number of mice) for `CCN(CC)CC(=O)Nc1c(Cc2nccc3ccccc23)ccc(OC)c1OC` , please?
# output 0

# input Recorded Toxicity: Death (number of mice) for COc1ccc(Cc2nccc3ccccc23)c(NC(=O)C(C)N)c1OC (centres unmarked) , please?
# output 0

# input Recorded Toxicity: Death (number of mice) for COc1ccc(Cc2nccc3cc(OC)c(OC)cc23)cc1OC [Papaverine, reference compound] , please?
# output 0

# input Recorded Toxicity: Death (number of mice) for CCN(CC)CC(=O)Nc1c(C)cccc1C [Lidocaine, 2-diethylamino-2',6'-acetoxylidide, reference compound] , please?
# output 0

# input Recorded Toxicity: Death (number of mice) for `CCNCC(=O)Nc1c(Cc2nccc3ccccc23)ccc(OC)c1OC` , please?
# output 0

Data origin, for the record: patent US4053603A
